FYI, the data here is from ChEMBL document CHEMBL1132378.

target or test system: Adenosine receptor A1 (Rattus norvegicus)
Sequence (P25099 whole entry): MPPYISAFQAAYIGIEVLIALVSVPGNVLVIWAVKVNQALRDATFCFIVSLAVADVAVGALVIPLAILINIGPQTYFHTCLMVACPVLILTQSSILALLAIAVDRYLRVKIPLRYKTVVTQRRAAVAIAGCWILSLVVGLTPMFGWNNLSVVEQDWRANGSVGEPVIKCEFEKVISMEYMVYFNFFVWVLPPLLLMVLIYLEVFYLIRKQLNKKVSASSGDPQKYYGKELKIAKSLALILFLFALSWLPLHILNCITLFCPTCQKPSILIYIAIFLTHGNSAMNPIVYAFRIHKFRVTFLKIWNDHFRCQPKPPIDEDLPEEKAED
assay text: Enhanced 0.5 nM [3H]CCPA dissociation from adenosine A1 receptor of rat brain cortex membranes compared to 100 uM CPA
Reported EC50 values follow for various compounds

Some entries whose results are on file:
chem smiles | EC50
Nc1sc2c(c1C(=O)c1cccc(Cl)c1)CCCC2 | 10.5 µM
Nc1sc2c(c1C(=O)c1ccc(Cl)cc1)CCCC2 | 6.8 µM
Nc1sc2c(c1C(=O)c1ccccc1)CCN(Cc1cccc(Cl)c1)C2 | 15.1 µM

Need EC50, item Nc1sc2c(c1C(=O)c1ccc(Cl)cc1)CCN(Cc1ccccc1)C2
11.3 µM

###

target or test system: Adenosine receptor A1 (Rattus norvegicus) (UniProt P25099)
Sequence (whole entry): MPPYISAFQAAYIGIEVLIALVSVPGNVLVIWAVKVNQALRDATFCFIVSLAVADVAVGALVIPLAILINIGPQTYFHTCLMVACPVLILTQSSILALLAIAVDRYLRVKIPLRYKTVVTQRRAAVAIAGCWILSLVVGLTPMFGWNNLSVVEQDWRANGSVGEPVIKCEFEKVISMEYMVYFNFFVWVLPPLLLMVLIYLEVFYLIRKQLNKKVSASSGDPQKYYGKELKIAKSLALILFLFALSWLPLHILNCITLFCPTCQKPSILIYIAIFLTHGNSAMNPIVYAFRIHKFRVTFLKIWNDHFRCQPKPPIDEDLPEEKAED
assay text: Antagonistic activity expressed as percent displacement of 0.4 nM of [3H]DPCPX from adenosine A1 receptors in rat brain cortex membranes at 10 uM
Assay type: functional, cell membranes
condition parameters: Membrane
endpoint name: Antagonism (%)
Write down the numeric answer in % and omit the unit.

Some entries whose results are on file:
molecule | Antagonism / %
Nc1sc2c(c1C(=O)c1ccc(Cl)cc1)CCN(Cc1ccccc1)C2 | 60.9
Nc1sc2c(c1C(=O)c1ccc(Cl)cc1)CCCC2 [T-62] | 39.9

Need Antagonism, item Cc1sc(N)c(C(=O)c2ccccc2)c1C
13.9

Need Antagonism, item Cc1sc(N)c(C(=O)c2cccc(C(F)(F)F)c2)c1C
39.5

###

target or test system: Adenosine receptor A1 (Rattus norvegicus)
assay text: Antagonistic activity expressed as percent displacement of 0.4 nM of [3H]DPCPX from adenosine A1 receptors in rat brain cortex membranes at 10 uM
Assay type: functional, cell membranes
condition parameters: Membrane
Reported Antagonism values follow for various compounds
Write down the numeric answer in % and omit the unit.

Need Antagonism, item Cc1ccc(C(=O)c2c(N)sc3c2CCCC3)cc1
30.3

Need Antagonism, item Nc1sc2c(c1C(=O)c1ccccc1)CCN(Cc1ccccc1)C2
67.1

Need Antagonism, item COC(=O)c1ccc(C(=O)c2c(N)sc3c2CCCC3)cc1
28.9

Need Antagonism, item Nc1sc2c(c1C(=O)c1cccc(Cl)c1)CCCC2
50.6

Need Antagonism, item Nc1sc2c(c1C(=O)c1ccccc1)CCN(Cc1ccc(Cl)cc1)C2
52.2

Need Antagonism, item Nc1sc2c(c1C(=O)c1ccc(C(F)(F)F)cc1)CCCC2
56.7

Need Antagonism, item Cc1sc(N)c(C(=O)c2cccc(Cl)c2)c1C
18.7

Need Antagonism, item Nc1sc2c(c1C(=O)c1ccccc1)CCN(C(=O)c1ccccc1)C2
71.8

Need Antagonism, item Nc1sc2c(c1C(=O)c1ccccc1)CCCC2
34.7

Need Antagonism, item CCc1c(C)sc(N)c1C(=O)c1cccc(Cl)c1
22.3

Need Antagonism, item Nc1sc2c(c1C(=O)c1ccc(I)cc1)CCCC2
64.4

###

Reported Antagonism values follow for various molecules
target or test system: Adenosine receptor A1 (Rattus norvegicus)
Sequence (whole entry): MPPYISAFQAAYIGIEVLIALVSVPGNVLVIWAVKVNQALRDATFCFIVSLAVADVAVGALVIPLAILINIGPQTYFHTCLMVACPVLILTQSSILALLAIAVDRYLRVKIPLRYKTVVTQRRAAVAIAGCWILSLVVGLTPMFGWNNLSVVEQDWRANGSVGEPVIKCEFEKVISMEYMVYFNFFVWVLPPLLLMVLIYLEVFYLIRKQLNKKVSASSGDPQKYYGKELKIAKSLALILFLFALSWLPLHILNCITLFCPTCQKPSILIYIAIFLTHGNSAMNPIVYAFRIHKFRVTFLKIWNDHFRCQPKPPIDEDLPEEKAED
assay text: Antagonistic activity expressed as percent displacement of 0.4 nM of [3H]DPCPX from adenosine A1 receptors in rat brain cortex membranes at 10 uM
Type: functional, cell membranes
condition parameters: Membrane
Write down the numeric answer in % and omit the unit.

Some entries whose results are on file:
chem smiles | output unit | Antagonism
Cc1sc(N)c(C(=O)c2ccc(Cl)cc2)c1C | % | 41
Nc1sc2c(c1C(=O)c1cccc(I)c1)CCCC2 | % | 65.8
Nc1sc2c(c1C(=O)c1ccc(Br)cc1)CCCC2 | % | 41.6

Reported Antagonism for Adenosine receptor A1 (Rattus norvegicus), given Nc1sc2c(c1C(=O)c1ccc(Cl)cc1)CCN(Cc1ccc(Cl)c(Cl)c1)C2 ?
45.7
